Assay: suppression of PGC-1a mRNA in primary hepatocytes, dose response, PGC-1a acetylation activator project, cell-based, primary mouse hepatocytes, RT-qPCR, cherry-pick (AID 743467);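 also: 0% = neutral control wells median and 100% = positive control wells median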
Conditions: PGC-1a mRNA qPCR, forskolin, top dose 26 µM, hits give high values; at 26 µM unless noted
Some of the results follow. Results filed as inconclusive are left out. Active and inactive are the calls of the source.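 The calls were made as follows: active = compound lowering PGC-1a expression with fitted half-maximal concentration at most twice its top tested dose; inconclusive = flat curve with moderate opposite-direction effect, or poor fit; inactive = the rest.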
PARAMETER_MEASURED: max activity (PGC-1a expression decrease)

{"COMPOUND": "Cc1cc(C)c2c(-n3cccc3)c(C(=O)NNS(=O)(=O)c3ccc(F)cc3)sc2n1", "RESULT": "82.5% [at 8 µM] (inactive)"}

Req: Give the measured max activity (PGC-1a expression decrease) for O=C(NCc1ccccc1)C(c1ccccc1)N(C(=O)c1csnn1)c1ccc(F)cc1 (stereo unspecified)
Resp: 114% [at 8 µM] (inactive)

Req: Give the measured max activity (PGC-1a expression decrease) for `O=S(=O)(NCc1ccccc1Br)c1ccccc1Br`
Resp: 65.1% (inactive)

Req: Give the measured max activity (PGC-1a expression decrease) for `Cc1cc(C(=O)NNS(=O)(=O)c2ccccc2C(F)(F)F)nn1C(C)(C)C`
Resp: 22.5% [at 0.0012 µM] (inactive)

Req: Give the measured max activity (PGC-1a expression decrease) for `COc1ccc(Nc2nnc(C)c3ccccc23)cc1`
Resp: 52.1% (inactive)

Req: Give the measured max activity (PGC-1a expression decrease) for `CCCCC(=O)Nc1ccc(C(=O)NCCCn2ccnc2)cc1`
Resp: 68.4% [at 0.011 µM] (inactive)
